A collection of compounds and their measured Papp
assay: in vitro; details: PAMPA

Check out these entries, answers already filled in.
SMILES RECORD	Papp
O=C(Nc1ccc(C(F)(F)F)c(Cl)c1)c1cc(Br)ccc1O	23.2 ×10⁻⁶ cm/s
O=C(Nc1ccc([N+](=O)[O-])cc1Cl)c1cc([N+](=O)[O-])ccc1O	30.3 ×10⁻⁶ cm/s
CC(=O)Nc1ccccc1C(=O)Nc1ccc([N+](=O)[O-])cc1Cl	431 ×10⁻⁶ cm/s
Cc1ccc(O)c(C(=O)Nc2ccc([N+](=O)[O-])cc2Cl)c1	134 ×10⁻⁶ cm/s
O=C(Nc1ccc([N+](=O)[O-])c2ccccc12)c1cc(Cl)ccc1O	141 ×10⁻⁶ cm/s
O=C(Nc1ccc(C(F)(F)F)cc1)c1cc(Cl)ccc1O	< 22.3 ×10⁻⁶ cm/s
O=C(Nc1ccc(Cl)cc1)c1cc(Cl)ccc1O	297 ×10⁻⁶ cm/s
O=C(Nc1ccncc1Cl)c1cc(Cl)ccc1O	31 ×10⁻⁶ cm/s
CC(=O)Nc1ccc(NC(=O)c2cc(Cl)ccc2O)c(Cl)c1	87 ×10⁻⁶ cm/s
COc1cccc(NC(=O)c2cc(Cl)ccc2O)c1	43 ×10⁻⁶ cm/s

Fill in: Papp of `O=C(Nc1ccc([N+](=O)[O-])cc1Cl)c1ccc2ccccc2c1O` is ___ 90.2 ×10⁻⁶ cm/s

Field request: Papp | item: `Nc1cccc(Cl)c1C(=O)Nc1ccc([N+](=O)[O-])cc1Cl` 450 ×10⁻⁶ cm/s

Field request: Papp | item: `O=C(Nc1ccc([N+](=O)[O-])cc1Cl)c1cnc2ccccc2c1O` 499 ×10⁻⁶ cm/s

Param item = `O=C(Nc1ccccc1C(F)(F)F)c1cc(Cl)ccc1O` ; retrieve measured Papp. 26 ×10⁻⁶ cm/s

Endpoint output: Papp of `O=C(Nc1ccc([N+](=O)[O-])cc1Cl)c1cc(Cl)ccc1OC1CCNCC1` . Value? 517 ×10⁻⁶ cm/s

###

test: in vitro; conditions: PAMPA
Papp less than 100 ×10⁻⁶ cm/s is 1 (yes); Papp greater than or equal to 100 ×10⁻⁶ cm/s is 0 (no).

Example cases with answers are listed next.
MOLECULE	ASSIGNED LABEL
O=C(Nc1ccccc1[N+](=O)[O-])c1cc(Cl)ccc1O	0 (no)
N#Cc1ccc(NC(=O)c2ccc3ccccc3c2O)c(Cl)c1	0 (no)
O=C(Nc1ccc(F)cc1Cl)c1cc(Cl)ccc1O	1 (yes)

Quick check: Papp of `O=C(Nc1ncc([N+](=O)[O-])s1)c1cc(Cl)ccc1O` under 100 ×10⁻⁶ cm/s? 1 (yes)

Is Papp strictly under 100 ×10⁻⁶ cm/s for the entry `CC(=O)c1ccc(O)c(C(=O)Nc2ccc([N+](=O)[O-])cc2Cl)c1` ? 1 (yes)

Does this molecule meet the criterion Papp < 100 ×10⁻⁶ cm/s? `O=C(Nc1ccc([N+](=O)[O-])cc1Cl)c1c(O)ccc2ccccc12` 0 (no)

Confirm or reject: Papp of O=C(Nc1ccc([N+](=O)[O-])cc1Cl)c1cc(Cl)ccc1O [NICLOSAMIDE] lies strictly below 100 ×10⁻⁶ cm/s 1 (yes)

I'd appreciate it if you could check whether `O=C(Nc1ccc2cc([N+](=O)[O-])ccc2c1)c1cc(Cl)ccc1O` has Papp smaller than 100 ×10⁻⁶ cm/s. 0 (no)

Below 100 ×10⁻⁶ cm/s on Papp? Entry `COc1ccc(Cl)c(NC(=O)c2cc(Cl)ccc2O)c1` 1 (yes)

Field: below-cutoff. Rule: recorded Papp strictly less than 100 ×10⁻⁶ cm/s. Subject: `Cc1cccc(NC(=O)c2cc(Cl)ccc2O)c1C` 1 (yes)
